- TESTED SYSTEM: Ephrin type-A receptor 2 (Homo sapiens)
- ASSAY PROCEDURE: Agonist activity against EphA2 (unknown origin) overexpressed in MDA-MB-231-A2 cells assessed as increase in phosphorylated EphA2 levels at 2 to 50 uM after 30 mins by immunoprecipitation and immunoblot assay relative to 50 uM doxazosin
- Format: cell-based
The source made the active and inactive calls. No cut-off for these calls is given here.
Hello, when you answer, please use one of the following outcomes: label 1 for active, label 0 for inactive

Example cases with answers are listed next.
INSERT INTO assay_data (compound, label_class) VALUES
  ('COc1cc2nc(N3CCN(C(C)=O)CC3)nc(N)c2cc1OC', 'label 0'),
  ('COc1cc2nc(N3CCN(C(=O)c4ccc(Br)cc4)CC3)nc(N)c2cc1OC', 'label 1'),
  ('COc1cc2nc(N3CCN(C(=O)c4ccccn4)CC3)nc(N)c2cc1OC', 'label 0'),
  ('COc1cc2nc(N3CCN(C(=O)c4ccc5c(c4)OCO5)CC3)nc(N)c2cc1OC', 'label 1'),
  ('COc1cc2nc(N3CCN(C(=O)CCCCCCCCCCC(=O)N4CCN(c5nc(N)c6cc(OC)c(OC)cc6n5)CC4)CC3)nc(N)c2cc1OC', 'label 1');

For COc1cc2nc(N3CCN(C(=O)c4ccco4)CC3)nc(N)c2cc1OC , which call appears in the assay record?
label 0

----------
- TESTED SYSTEM: Ephrin type-A receptor 2 (Homo sapiens)
- ASSAY PROCEDURE: Agonist activity against EphA2 (unknown origin) overexpressed in MDA-MB-231-A2 cells assessed as increase in phosphorylated EphA2 levels at 2 to 50 uM after 30 mins by immunoprecipitation and immunoblot assay relative to 50 uM doxazosin
- Type: cell-based
Activity calls are given as the source filed them. No cut-off for these calls is given here.
Hello, when you answer, please use one of the following outcomes: 1 (active), 0 (inactive)

INSERT INTO assay_data (compound, label_class) VALUES
  ('COc1ccc(C(=O)N2CCN(c3nc(N)c4cc(OC)c(OC)cc4n3)CC2)cc1', 0),
  ('COc1cc2nc(N3CCN(C(=O)c4ccc(I)cc4)CC3)nc(N)c2cc1OC', 1),
  ('CCCCCC(=O)N1CCN(c2nc(N)c3cc(OC)c(OC)cc3n2)CC1', 0),
  ('COc1cc2nc(N3CCN(C(=O)C4CCCCC4)CC3)nc(N)c2cc1OC', 0),
  ('COc1cc2nc(N3CCN(C(=O)c4ccc(Cl)c([N+](=O)[O-])c4)CC3)nc(N)c2cc1OC', 0),
  ('COc1cc2nc(N3CCN(C(=O)Cc4ccc(OCc5ccccc5)cc4)CC3)nc(N)c2cc1OC', 1),
  ('CCCC(=O)N1CCN(c2nc(N)c3cc(OC)c(OC)cc3n2)CC1', 0),
  ('COc1cc2nc(N3CCN(C(=O)Cc4ccccc4)CC3)nc(N)c2cc1OC', 1);

For COc1cc2nc(N3CCN(C(=O)Cc4ccc5ccccc5c4)CC3)nc(N)c2cc1OC , which call appears in the assay record?
1

For COc1cc2nc(N3CCN(C(=O)c4ccc5ccccc5c4)CC3)nc(N)c2cc1OC , which call appears in the assay record?
1

For COc1cc2nc(N3CCN(C(=O)c4ccno4)CC3)nc(N)c2cc1OC , which call appears in the assay record?
0

For CCc1ccc(C(=O)N2CCN(c3nc(N)c4cc(OC)c(OC)cc4n3)CC2)cc1 , which call appears in the assay record?
1

For CSc1ccc(C(=O)N2CCN(C(=O)c3ccc(SC)cc3)CC2)cc1 , which call appears in the assay record?
0

The values you see were collected from ChEMBL document CHEMBL4138162.
